TARGET: neuronal nicotinic acetylcholine receptors (Rattus norvegicus, UniProt P09483+P12390)
Construct: crude synaptic membrane preparations from whole rat brain; from tissue; host or cells: whole rat brain, crude synaptic membranes
Sequence (P09483 31-630): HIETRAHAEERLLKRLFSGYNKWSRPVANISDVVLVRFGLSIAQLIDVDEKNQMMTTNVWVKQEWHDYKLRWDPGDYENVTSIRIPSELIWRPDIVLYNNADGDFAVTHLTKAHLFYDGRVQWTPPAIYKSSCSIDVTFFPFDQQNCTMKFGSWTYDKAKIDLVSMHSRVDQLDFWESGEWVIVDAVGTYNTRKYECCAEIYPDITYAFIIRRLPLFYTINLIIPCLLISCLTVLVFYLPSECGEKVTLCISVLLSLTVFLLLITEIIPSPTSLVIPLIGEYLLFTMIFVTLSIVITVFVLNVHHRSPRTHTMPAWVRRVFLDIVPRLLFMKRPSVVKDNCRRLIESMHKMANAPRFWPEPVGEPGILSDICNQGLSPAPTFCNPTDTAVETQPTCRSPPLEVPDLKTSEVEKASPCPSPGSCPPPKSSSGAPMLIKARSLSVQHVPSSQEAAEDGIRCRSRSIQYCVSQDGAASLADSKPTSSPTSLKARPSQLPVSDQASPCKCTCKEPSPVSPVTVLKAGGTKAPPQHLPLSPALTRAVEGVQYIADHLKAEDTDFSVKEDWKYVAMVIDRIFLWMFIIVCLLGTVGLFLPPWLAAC
Sequence (P12390 25-500): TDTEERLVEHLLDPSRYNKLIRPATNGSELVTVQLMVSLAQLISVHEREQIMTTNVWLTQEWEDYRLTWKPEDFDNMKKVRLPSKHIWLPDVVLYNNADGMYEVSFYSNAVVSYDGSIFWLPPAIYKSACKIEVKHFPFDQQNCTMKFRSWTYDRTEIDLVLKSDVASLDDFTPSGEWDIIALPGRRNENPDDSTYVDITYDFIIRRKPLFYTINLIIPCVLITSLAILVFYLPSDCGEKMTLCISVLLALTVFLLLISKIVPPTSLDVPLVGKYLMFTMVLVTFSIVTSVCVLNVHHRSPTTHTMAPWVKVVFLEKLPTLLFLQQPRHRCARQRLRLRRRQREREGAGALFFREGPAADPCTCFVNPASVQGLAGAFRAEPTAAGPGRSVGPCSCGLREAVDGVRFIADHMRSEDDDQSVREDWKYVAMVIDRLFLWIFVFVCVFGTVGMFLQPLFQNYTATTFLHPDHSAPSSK
METHOD_DESCRIPTION: [3H]-cytisine binding to neuronal nicotinic acetylcholine receptors, crude synaptic membranes from whole rat brain
ASSAY_CONTEXT: [3H]-CYT 1.25 nM, whole rat brain membranes, 60 minutes at 4° C.; Cheng and Prusoff correction; Table 1; read-out: Ki
Quick rule for you: Ki under 9 nM gets met, anything else gets not met.

Consider the compound CN[C@@H](C)COc1cnc(Cl)c(Br)c1.Cc1ccc(S(=O)(=O)O)cc1 . Is its Ki strictly less than 9 nM? not met

Hello, I'm reviewing records and need to know if Ki of C[C@@H](N)COc1ccc(F)nc1.Cc1ccc(S(=O)(=O)O)cc1 is below 9 nM. Could you check? met

Lab log: compare recorded Ki with 9 nM; is it strictly lower for C[C@H](N)COc1ccc(Cl)nc1.Cc1ccc(S(=O)(=O)O)cc1 ? met

State whether 9 nM exceeds Ki recorded for CN[C@H](C)COc1ccc(F)nc1.Cc1ccc(S(=O)(=O)O)cc1 . not met

hey, is Ki for CN[C@@H](C)COc1ccc(Cl)nc1.Cc1ccc(S(=O)(=O)O)cc1 lower than 9 nM or not? not met

Is 9 nM strictly greater than the compound's reported Ki? compound: CC[C@H](N)COc1ccc(Cl)nc1.Cc1ccc(S(=O)(=O)O)cc1 not met

Say whether its Ki is strictly beneath 9 nM. Entry: CN[C@H](C)COc1cnc(Cl)c(C)c1.Cc1ccc(S(=O)(=O)O)cc1 met

Lab note: Ki threshold 9 nM. Does this compound come in strictly under it? CC[C@H](N)COc1ccc(F)nc1 not met

Problem: For the compound C[C@@H](N)COc1cnc(Cl)c(C=Cc2ccncc2)c1 , is Ki under 9 nM? met

In plain terms, does CN(C)[C@H](COc1cnc(Cl)c(C=Cc2ccncc2)c1)Cc1ccccc1 come in under 9 nM for Ki? met

Does CN[C@@H](C)COc1cnc(Cl)c(C)c1.Cc1ccc(S(=O)(=O)O)cc1 have Ki strictly under 9 nM? met

Here's an entry: CC[C@H](N)COc1cnc(Cl)c(Br)c1.Cc1ccc(S(=O)(=O)O)cc1 . Is its Ki below 9 nM? not met

Would you kindly verify if Ki of C[C@H](COc1cnc(Cl)c(Br)c1)N(C)C is strictly less than 9 nM? not met

Below 9 nM on Ki? Entry CN[C@H](C)COc1cnc(Cl)c(Br)c1.Cc1ccc(S(=O)(=O)O)cc1 met

Does the reported Ki of the following compound sit strictly below 9 nM? CC[C@@H](COc1cnc(Cl)c(C=Cc2ccncc2)c1)N(C)C met

Does this compound meet the criterion Ki < 9 nM? C[C@H](N)COc1ccc(F)nc1.Cc1ccc(S(=O)(=O)O)cc1 met

I'd appreciate it if you could check whether C[C@@H](COc1cnc(Cl)c(Br)c1)N(C)C.Cc1ccc(S(=O)(=O)O)cc1 has Ki smaller than 9 nM. not met

Ki under 9 nM? Item: CC[C@@H](COc1ccc(F)nc1)NC not met

API: query returns whether the compound falls strictly under 9 nM in Ki. Query: N[C@H](COc1cnc(Cl)c(Br)c1)Cc1ccccc1 not met

// data source = patent US20010034357A1
